FYI, the data here is from PubChem BioAssay (NCI).

System: LOX IMVI melanoma
Assay: NCI tumour cell line growth inhibition, 48 h
Where a SMILES comes first, the peptide text is derived from it. The star is where a group is joined. Boc = CC(C)(C)OC(=O)*; Bn = c1ccc(C*)cc1
Experimental readout: TGI

Which TGI value belongs to CC(=O)OC1COC(Oc2c(C)c3c4c(c2O)[C@@H](C)CC[C@@H]4[C@@H](C)C[C@H]3C=C(C)C)C(O)C1OC(C)=O (stereo partly drawn) ?
25.7 µM

Quick one: CCOC(=O)CCC(NC(=O)Cc1ccc(Nc2nc3cc(F)c(F)cc3nc2C(=O)OCC)cc1)C(=O)OCC (stereo not drawn)
> 100 µM

Quick one: C/C=C/C(CC(O)(C(F)(F)F)C(F)(F)F)=N/NC(N)=S
> 10 µM

New cases:
Which TGI value belongs to COc1cccc(C(=O)Oc2ccc(OS(=O)(=O)c3ccc(C)cc3)cc2)c1C#N ?
> 100 µM

Quick one: COc1cc(C2c3cc4c(cc3OC(N3CCCCC3)C2C)OCO4)cc(OC)c1O (stereo not drawn)
> 59.8 µM

Quick one: CC[As](CC)SC[C@H](C)C(=O)N1CCC[C@H]1C(=O)O
0.102 µM

Quick one: COC(=O)C(CC(C)C)NC(=O)C(C)NC(=O)C(Cc1ccc(OCc2ccccc2)cc1)NC(=O)C(COCc1ccccc1)NC(=O)OC(C)(C)C (stereo not drawn) (Boc-S(Bn)Y(Bn)AL-OMe; configuration not given here)
> 100 µM
